system: Pdr3 (UniProt P33200)
Sequence: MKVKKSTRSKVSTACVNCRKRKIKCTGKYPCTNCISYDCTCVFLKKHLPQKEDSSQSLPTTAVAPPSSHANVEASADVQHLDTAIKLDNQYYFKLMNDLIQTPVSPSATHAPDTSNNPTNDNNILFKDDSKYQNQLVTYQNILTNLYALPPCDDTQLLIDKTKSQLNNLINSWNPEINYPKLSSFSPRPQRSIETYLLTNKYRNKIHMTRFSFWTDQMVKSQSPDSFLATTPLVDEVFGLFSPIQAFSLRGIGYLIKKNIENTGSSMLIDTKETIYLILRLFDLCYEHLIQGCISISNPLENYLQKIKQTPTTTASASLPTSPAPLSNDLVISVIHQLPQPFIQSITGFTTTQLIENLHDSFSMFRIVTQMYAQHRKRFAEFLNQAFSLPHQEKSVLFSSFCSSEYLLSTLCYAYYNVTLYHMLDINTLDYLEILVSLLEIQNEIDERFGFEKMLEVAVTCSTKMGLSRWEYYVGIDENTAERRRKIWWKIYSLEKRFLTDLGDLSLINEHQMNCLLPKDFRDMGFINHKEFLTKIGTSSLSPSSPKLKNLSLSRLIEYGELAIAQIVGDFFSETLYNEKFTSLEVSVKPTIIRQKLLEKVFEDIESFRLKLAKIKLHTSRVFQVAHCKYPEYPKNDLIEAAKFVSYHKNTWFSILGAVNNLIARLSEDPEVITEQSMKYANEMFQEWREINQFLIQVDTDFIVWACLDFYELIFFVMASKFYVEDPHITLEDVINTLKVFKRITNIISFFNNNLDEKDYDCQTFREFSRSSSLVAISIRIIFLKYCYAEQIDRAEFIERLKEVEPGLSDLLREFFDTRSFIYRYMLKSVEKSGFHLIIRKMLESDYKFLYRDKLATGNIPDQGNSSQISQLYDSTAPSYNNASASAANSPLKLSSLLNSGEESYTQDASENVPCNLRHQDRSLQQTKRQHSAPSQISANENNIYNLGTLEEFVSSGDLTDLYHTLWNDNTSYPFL
test_method_notes: PBM E-score (8-mer binding enrichment) (E-score (-0.5 to 0.5)); higher = stronger / more preferred TF binding
experimental_conditions: protein concentration: 200 nM; construct: GST-full length
The full ranking holds about 33,000 sequences; the median of “E-score (-0.5 to 0.5)” is about -0.035, and the highest 2% start at about 0.35. Many of the other results were omitted from the sample, so the highest values are more common in it than they were.
Label scheme for PBM E-score: lower than 0.02 is f, 0.02 and above is t.

Look over these answered cases.
> print(dat)
   polymer.sequence  assigned.class
1          ACGGAAAA               t
2          GAGGAAAA               t
3          CGGAAGGA               t
4          TCTCCGAA               t
5          GTCGCGAA               t

[in] Is PBM E-score for AAGGAAAC at or above 0.02?
[out] t

[in] Note, next up: GGGAAGGA
[out] f

[in] Note, next up: AAGGAAAT
[out] f

[in] Note, next up: CTTGACTA
[out] f

[in] Note, next up: AGGAAGGA
[out] f

###

Measured PBM E-score, listed per entry for reference.
system: Pdr3 (UniProt P33200)
Sequence: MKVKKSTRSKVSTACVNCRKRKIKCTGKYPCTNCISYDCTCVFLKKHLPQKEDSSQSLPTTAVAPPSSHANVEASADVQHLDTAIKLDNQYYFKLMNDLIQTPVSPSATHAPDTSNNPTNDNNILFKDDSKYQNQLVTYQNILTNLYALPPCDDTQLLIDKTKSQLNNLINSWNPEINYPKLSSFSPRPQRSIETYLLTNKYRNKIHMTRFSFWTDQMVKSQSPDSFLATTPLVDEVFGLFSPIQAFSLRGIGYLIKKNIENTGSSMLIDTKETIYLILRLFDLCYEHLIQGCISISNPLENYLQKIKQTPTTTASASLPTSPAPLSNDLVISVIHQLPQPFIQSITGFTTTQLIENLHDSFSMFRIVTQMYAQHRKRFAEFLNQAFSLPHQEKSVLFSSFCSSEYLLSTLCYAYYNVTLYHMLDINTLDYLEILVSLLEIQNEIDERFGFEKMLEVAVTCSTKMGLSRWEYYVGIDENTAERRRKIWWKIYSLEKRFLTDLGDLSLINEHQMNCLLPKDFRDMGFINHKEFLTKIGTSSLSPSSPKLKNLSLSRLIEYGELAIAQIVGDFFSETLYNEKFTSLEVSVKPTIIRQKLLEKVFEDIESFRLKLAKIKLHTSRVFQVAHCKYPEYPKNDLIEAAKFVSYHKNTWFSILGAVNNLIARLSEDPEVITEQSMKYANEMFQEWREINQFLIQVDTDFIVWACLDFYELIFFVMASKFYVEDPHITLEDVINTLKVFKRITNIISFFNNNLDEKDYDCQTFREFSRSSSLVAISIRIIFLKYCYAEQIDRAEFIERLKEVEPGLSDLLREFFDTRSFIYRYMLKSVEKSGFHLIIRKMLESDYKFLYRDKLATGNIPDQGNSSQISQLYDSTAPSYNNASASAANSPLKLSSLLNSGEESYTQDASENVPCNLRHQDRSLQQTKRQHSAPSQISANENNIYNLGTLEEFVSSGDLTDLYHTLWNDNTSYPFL
test_method_notes: PBM E-score (8-mer binding enrichment) (E-score (-0.5 to 0.5)); higher = stronger / more preferred TF binding
experimental_conditions: protein concentration: 200 nM; construct: GST-full length
In all, about 33,000 sequences were measured (“E-score (-0.5 to 0.5)”: median about -0.035, highest 2% from about 0.35 on). This is one part of a sample in which the highest values are shown more often than they occur.
Reply with just the number.

Reference set (6 entries):
> print(dat)
   polymer.sequence                 system  readout.value
1          ACGAGGCA  Pdr3 (UniProt P33200)         -0.211
2          TATTCCAA  Pdr3 (UniProt P33200)         -0.091
3          TATTCCCA  Pdr3 (UniProt P33200)         0.0626
4          CATTCCGG  Pdr3 (UniProt P33200)          0.451
5          CACCCAGC  Pdr3 (UniProt P33200)        -0.0529
6          AAACCAGT  Pdr3 (UniProt P33200)         -0.227

[in] Request - read-out PBM E-score | tested on Pdr3 (UniProt P33200) | sequence CTTCTGGA
[out] -0.0291

[in] Note, next up: GATCCAAA
[out] 0.064

[in] Note, next up: GCGGGTGA
[out] 0.26

[in] Note, next up: CATTCCAA
[out] -0.102

[in] Note, next up: AACCCTGT
[out] -0.104

[in] Note, next up: ATCCAATG
[out] -0.208

###

system: Pdr3 (UniProt P33200)
Sequence: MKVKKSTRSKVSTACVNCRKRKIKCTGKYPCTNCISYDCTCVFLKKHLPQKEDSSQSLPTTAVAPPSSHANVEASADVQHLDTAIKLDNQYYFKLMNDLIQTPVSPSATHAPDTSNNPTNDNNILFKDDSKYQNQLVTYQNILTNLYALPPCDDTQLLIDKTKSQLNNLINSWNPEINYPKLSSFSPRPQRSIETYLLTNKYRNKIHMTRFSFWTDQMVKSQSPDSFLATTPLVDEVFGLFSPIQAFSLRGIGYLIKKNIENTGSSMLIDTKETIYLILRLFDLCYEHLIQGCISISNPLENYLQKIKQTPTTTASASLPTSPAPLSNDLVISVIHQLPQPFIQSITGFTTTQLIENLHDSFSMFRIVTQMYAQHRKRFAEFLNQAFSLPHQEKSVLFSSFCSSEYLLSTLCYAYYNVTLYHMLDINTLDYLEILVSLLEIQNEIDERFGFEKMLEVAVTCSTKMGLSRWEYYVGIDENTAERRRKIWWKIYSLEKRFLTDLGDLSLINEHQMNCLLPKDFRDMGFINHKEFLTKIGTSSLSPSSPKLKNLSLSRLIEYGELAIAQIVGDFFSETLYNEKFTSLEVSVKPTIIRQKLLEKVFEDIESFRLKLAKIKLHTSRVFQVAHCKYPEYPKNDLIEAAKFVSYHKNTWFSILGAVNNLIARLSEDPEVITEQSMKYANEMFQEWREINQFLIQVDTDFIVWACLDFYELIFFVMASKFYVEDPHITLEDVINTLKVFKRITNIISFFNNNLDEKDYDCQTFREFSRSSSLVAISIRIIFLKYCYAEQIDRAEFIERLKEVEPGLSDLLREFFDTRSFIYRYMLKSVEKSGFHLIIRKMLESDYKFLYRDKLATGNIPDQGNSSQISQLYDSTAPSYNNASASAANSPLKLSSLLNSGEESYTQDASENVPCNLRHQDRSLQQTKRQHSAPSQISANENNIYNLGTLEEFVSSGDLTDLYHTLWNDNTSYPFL
test_method_notes: PBM E-score (8-mer binding enrichment) (E-score (-0.5 to 0.5)); higher = stronger / more preferred TF binding
experimental_conditions: protein concentration: 200 nM; construct: GST-full length
Over roughly 33,000 sequences, “E-score (-0.5 to 0.5)” has its median near -0.035; the highest 2% begin near 0.35. Shown is part of a subset that was picked to be rich in the highest values.
endpoint_label: PBM E-score
Reply with just the number.

Reference set (9 entries):
> print(dat)
   polymer.sequence  endpoint.label  readout.value
1          CGTTGCCC     PBM E-score          0.101
2          ACTTCCAA     PBM E-score         -0.127
3          AGGGCCTG     PBM E-score         -0.195
4          CATTCGGA     PBM E-score          0.356
5          CTCTTTCA     PBM E-score         -0.137
6          GTCAAAGA     PBM E-score         -0.212
7          GGTTCGGA     PBM E-score           0.34
8          ACTTCCGG     PBM E-score           0.42
9          AATTCGGG     PBM E-score          0.153

Continue with the sequence presented below.
[in] Record request: PBM E-score value, item CAGACCCG
[out] 0.279

These data points were gathered from the supplement of paper PMC3334620.
